As shown below, each of these compounds has a reported remaining activity at 10 µM value.
Molecular target: recombinant human MAO-B (Homo sapiens)
Construct: purchased Sigma-Aldrich
Sequence (P27338 1-520): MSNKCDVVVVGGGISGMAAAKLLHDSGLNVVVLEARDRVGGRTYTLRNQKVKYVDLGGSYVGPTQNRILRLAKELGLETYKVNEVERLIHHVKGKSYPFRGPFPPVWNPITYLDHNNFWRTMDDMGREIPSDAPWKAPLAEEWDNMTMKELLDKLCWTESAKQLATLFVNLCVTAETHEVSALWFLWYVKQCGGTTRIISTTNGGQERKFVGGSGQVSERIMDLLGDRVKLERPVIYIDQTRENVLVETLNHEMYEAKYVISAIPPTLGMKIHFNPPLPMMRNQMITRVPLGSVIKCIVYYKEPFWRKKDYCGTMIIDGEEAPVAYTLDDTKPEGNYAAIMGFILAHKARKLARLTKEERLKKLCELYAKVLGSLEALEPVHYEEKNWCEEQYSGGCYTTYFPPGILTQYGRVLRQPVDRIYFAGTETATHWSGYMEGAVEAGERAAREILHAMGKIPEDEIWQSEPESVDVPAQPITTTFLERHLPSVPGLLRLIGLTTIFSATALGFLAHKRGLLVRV
Assay: MAO-B inhibition assay (benzylamine)
Type: biochemical
Settings: inhibitor 10 µM; read-out: Residual activity at 10 µM (%) MAO-B
RESULT TYPE: remaining activity at 10 µM

>>> result("CC(C)=CC(=O)O[C@@H]1c2c(ccc3ccc(=O)oc23)OC(C)(C)[C@@H]1OC(=O)CC(C)C")
"75%"
>>> result("C/C=C(/C)C(=O)O[C@@H]1[C@H](OC(=O)C(C)CC)c2c(ccc3ccc(=O)oc23)OC1(C)C (stereo partly shown)")
"64.6%"
>>> result("CC(=O)O[C@@H]1[C@H](OC(=O)C=C(C)C)c2c(ccc3ccc(=O)oc23)OC1(C)C")
"85%"
>>> result("C/C=C(/C)C(=O)O[C@@H]1c2c(ccc3ccc(=O)oc23)OC(C)(C)[C@@H]1OC(=O)C=C(C)C")
"96%"
>>> result("CCC(C)C(=O)O[C@@H]1c2c(ccc3ccc(=O)oc23)OC(C)(C)[C@@H]1OC(C)=O (stereo partly shown)")
"83.7%"
>>> result("CCC(C)C(=O)O[C@@H]1c2c(ccc3ccc(=O)oc23)OC(C)(C)[C@@H]1OC(=O)C=C(C)C (stereo partly shown)")
"70.9%"
>>> result("C/C=C(/C)C(=O)O[C@@H]1c2c(ccc3ccc(=O)oc23)OC(C)(C)[C@@H]1OC(=O)C(C)CC (stereo partly shown)")
"72.4%"

====

target: recombinant human MAO-A (Homo sapiens); construct: purchased Sigma-Aldrich; test: MAO-A inhibition assay (kynuramine); format: biochemical; settings: inhibitor 10 µM; read-out: Residual activity at 10 µM (%) MAO-A
Sequence (P21397 whole entry): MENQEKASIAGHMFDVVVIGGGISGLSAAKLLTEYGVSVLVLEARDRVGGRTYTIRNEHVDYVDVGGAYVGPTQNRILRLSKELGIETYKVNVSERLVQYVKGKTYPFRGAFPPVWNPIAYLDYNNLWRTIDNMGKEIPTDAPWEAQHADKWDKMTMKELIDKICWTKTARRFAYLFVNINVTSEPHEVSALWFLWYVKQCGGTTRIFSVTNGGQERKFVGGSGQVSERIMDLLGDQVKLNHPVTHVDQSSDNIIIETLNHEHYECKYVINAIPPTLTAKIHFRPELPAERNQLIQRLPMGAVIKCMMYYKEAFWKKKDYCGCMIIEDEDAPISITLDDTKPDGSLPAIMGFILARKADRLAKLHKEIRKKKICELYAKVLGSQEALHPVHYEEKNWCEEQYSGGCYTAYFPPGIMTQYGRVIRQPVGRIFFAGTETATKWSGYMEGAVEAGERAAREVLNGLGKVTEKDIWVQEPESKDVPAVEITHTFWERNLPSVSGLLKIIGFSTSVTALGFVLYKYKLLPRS
Entries and their remaining activity at 10 µM
RESULT TYPE: remaining activity at 10 µM

>>> result("CCC(C)C(=O)O[C@@H]1c2c(ccc3ccc(=O)oc23)OC(C)(C)[C@@H]1OC(C)=O (stereo partly shown)")
"81.2%"
>>> result("CC(C)=CC(=O)O[C@@H]1c2c(ccc3ccc(=O)oc23)OC(C)(C)[C@@H]1OC(=O)CC(C)C")
"80.6%"
>>> result("C/C=C(/C)C(=O)O[C@@H]1[C@H](OC(=O)C(C)CC)c2c(ccc3ccc(=O)oc23)OC1(C)C (stereo partly shown)")
"88.5%"
>>> result("C/C=C(/C)C(=O)O[C@@H]1c2c(ccc3ccc(=O)oc23)OC(C)(C)[C@@H]1OC(=O)C=C(C)C")
"84.7%"
>>> result("C/C=C(/C)C(=O)OC1c2c(ccc3ccc(=O)oc23)OC(C)(C)C1OC(=O)CC(C)C (stereo not shown)")
"75.4%"
>>> result("CC(C)=CC(=O)O[C@@H]1c2c(ccc3ccc(=O)oc23)OC(C)(C)[C@@H]1OC(=O)C=C(C)C")
"100%"
>>> result("CC(=O)O[C@@H]1[C@H](OC(=O)C=C(C)C)c2c(ccc3ccc(=O)oc23)OC1(C)C")
"86%"
>>> result("CC(C)=CC(=O)O[C@@H]1[C@H](OC(=O)CC(C)C)c2c(ccc3ccc(=O)oc23)OC1(C)C")
"79.5%"
>>> result("C/C=C(/C)C(=O)O[C@@H]1[C@H](OC(=O)C=C(C)C)c2c(ccc3ccc(=O)oc23)OC1(C)C")
"86.1%"
>>> result("C/C=C(/C)C(=O)O[C@@H]1c2c(ccc3ccc(=O)oc23)OC(C)(C)[C@@H]1OC(=O)C(C)CC (stereo partly shown)")
"78.9%"
>>> result("CCC(C)C(=O)O[C@@H]1c2c(ccc3ccc(=O)oc23)OC(C)(C)[C@@H]1OC(=O)C=C(C)C (stereo partly shown)")
"92.1%"
>>> result("CCC(C)C(=O)O[C@@H]1c2c(ccc3ccc(=O)oc23)OC(C)(C)[C@@H]1OC(=O)CC(C)C (stereo partly shown)")
"76.9%"
>>> result("CC(C)CC(=O)O[C@@H]1c2c(ccc3ccc(=O)oc23)OC(C)(C)[C@@H]1OC(=O)CC(C)C")
"77%"
